# Assayed Target: Anti-CD28 Fab (SEQ ID NOs: 696, 697) (biotinylated (site not stated))
# Sequence (VH, as listed by the source, chain 1 of 2): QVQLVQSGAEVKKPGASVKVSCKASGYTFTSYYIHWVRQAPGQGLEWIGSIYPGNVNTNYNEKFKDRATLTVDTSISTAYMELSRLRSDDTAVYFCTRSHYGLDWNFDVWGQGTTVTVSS
# Sequence (VL, as listed by the source, chain 2 of 2): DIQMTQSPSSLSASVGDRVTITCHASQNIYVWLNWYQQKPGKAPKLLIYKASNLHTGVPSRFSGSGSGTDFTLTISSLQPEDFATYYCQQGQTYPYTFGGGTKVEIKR
# Experiment Description: phage binding ELISA; biotinylated anti-CD28 Fab on neutravidin plates, clonal phage supernatant, anti-M13 HRP detection
Attribute Measured: Anti-CD28 Fab signal (phage binding ELISA)
Just the number, please, no unit after it.

Reported Anti-CD28 Fab signal (phage binding ELISA) for YCDGHVPQYMAKCL (tested as crude phage supernatant) [Phage-653] : what is it?
2.1

Reported Anti-CD28 Fab signal (phage binding ELISA) for YCDGHLEEYMAKCL (tested as crude phage supernatant) [Phage-648] : what is it?
2.11

Reported Anti-CD28 Fab signal (phage binding ELISA) for YCDGHLPEYMHKCL (tested as crude phage supernatant) [Phage-647] : what is it?
2.11

Reported Anti-CD28 Fab signal (phage binding ELISA) for YCDGHSAEYMSKCL (tested as crude phage supernatant) [Phage-654] : what is it?
2.1
